# system: human α7 nAChR (Homo sapiens (Human), UniProt P36544)
# Sequence (P36544 23-502): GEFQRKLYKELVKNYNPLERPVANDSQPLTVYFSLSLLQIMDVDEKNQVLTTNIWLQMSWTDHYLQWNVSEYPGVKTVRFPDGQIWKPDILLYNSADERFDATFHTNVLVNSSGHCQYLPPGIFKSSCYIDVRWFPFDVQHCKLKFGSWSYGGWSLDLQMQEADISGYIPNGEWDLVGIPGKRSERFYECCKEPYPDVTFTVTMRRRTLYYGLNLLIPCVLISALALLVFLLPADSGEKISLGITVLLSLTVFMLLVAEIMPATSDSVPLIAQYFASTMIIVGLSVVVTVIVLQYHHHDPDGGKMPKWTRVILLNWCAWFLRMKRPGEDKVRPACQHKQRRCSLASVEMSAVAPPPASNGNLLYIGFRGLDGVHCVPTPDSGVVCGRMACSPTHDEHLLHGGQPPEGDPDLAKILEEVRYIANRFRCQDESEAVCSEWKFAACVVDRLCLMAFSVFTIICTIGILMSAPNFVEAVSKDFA
# assay-comment: Automated patch-clamp electrophysiology functional assay (Assay A), IonFlux HT
# Format: cell-based
# measurement-context: HEK cell line stably expressing human RIC-3 and human α7; whole-cell population patch; 40 μM acetylcholine; read-out: α7 nAChR Potency
property-label: EC50

Worked cases, EC50 given:
NS(=O)(=O)c1ccc([C@@H]2C[C@H]2c2cccc(C3CCOCC3)n2)cc1 (racemic)
5 to 50 µM
CC(C)c1ccnc(C2CC2c2ccc(S(N)(=O)=O)cc2)n1 (racemic) [Example C3]
0.5 to 5 µM
NS(=O)(=O)c1ccc(C2CC2c2nccc(-c3cncc(C(F)(F)F)c3)n2)cc1 (single isomer, unassigned)
0.1 to 0.5 µM
CC(C)c1ccc(C2CC2c2ccc(S(N)(=O)=O)cc2)cn1 (racemic)
0.5 to 5 µM
NS(=O)(=O)c1ccc([C@@H]2C[C@H]2c2cccc(-n3cccn3)n2)cc1 (racemic)
0.5 to 5 µM

EC50 in this record for NS(=O)(=O)c1ccc([C@@H]2C[C@H]2c2ccnc(N3CCOCC3)n2)cc1 (relative stereo) : 0.5 to 5 µM

EC50 in this record for NS(=O)(=O)c1ccc([C@@H]2C[C@H]2c2ccc(N3CCCC3)nc2)cc1 (relative stereo) : 0.5 to 5 µM

EC50 in this record for NS(=O)(=O)c1ccc(C2CC2c2cncc(N3CCCC3)c2)cc1 (racemic) : 0.5 to 5 µM

---

# system: human α7 nAChR (Homo sapiens (Human))
# assay-comment: Automated patch-clamp electrophysiology functional assay (Assay A), IonFlux HT
# Type: cell-based
# measurement-context: HEK cell line stably expressing human RIC-3 and human α7; whole-cell population patch; 40 μM acetylcholine; read-out: α7 nAChR Potency
property-label: EC50

Worked cases, EC50 given:
NS(=O)(=O)c1ccc([C@@H]2C[C@H]2c2nccc(-c3cncc(C(F)(F)F)c3)n2)cc1 (single isomer, unassigned)
0.5 to 5 µM
CC(C)c1cccc(C2CC2c2ccc(S(N)(=O)=O)cc2)n1 (single isomer, unassigned) [Example A1]
0.5 to 5 µM
CC(C)c1ccnc(C2CC2c2ccc(S(N)(=O)=O)cc2)c1 (racemic) [Example A11]
0.1 to 0.5 µM
NS(=O)(=O)c1ccc([C@@H]2C[C@H]2c2ccc(C3CCCC3)cn2)cc1 (racemic)
0.5 to 5 µM
CC(C)c1ccnc(C2CC2c2ccc(S(N)(=O)=O)cc2)n1 (single isomer, unassigned) [Example 5]
0.1 to 0.5 µM

EC50 in this record for CC(C)c1ccc(C2CC2c2ccc(S(N)(=O)=O)cc2)nn1 (racemic) : 5 to 50 µM

EC50 in this record for NS(=O)(=O)c1ccc(C2CC2c2ccnc(Nc3ccccc3)n2)cc1 (racemic) : 0.5 to 5 µM

---

# system: human α7 nAChR (Homo sapiens (Human))
# assay-comment: Automated patch-clamp electrophysiology functional assay (Assay A), IonFlux HT
# Assay type: cell-based
# measurement-context: HEK cell line stably expressing human RIC-3 and human α7; whole-cell population patch; 40 μM acetylcholine; read-out: α7 nAChR EC50
pEC50: −log10 of the molar value.
property-label: pEC50

Worked cases, pEC50 given:
NS(=O)(=O)c1ccc([C@@H]2C[C@H]2c2ccc(-n3ccnc3)cc2)cc1 (racemic)
5.43
CC(C)c1cccnc1C1CC1c1ccc(S(N)(=O)=O)cc1 (racemic)
5.62
NS(=O)(=O)c1ccc([C@H]2[C@H](c3nccc(-c4cccc(F)c4)n3)C2(F)F)cc1
5.80
Cc1nc(-c2cccc([C@@H]3C[C@H]3c3ccc(S(N)(=O)=O)cc3)c2)no1 (relative stereo)
6.49
CC(C)c1ccc(C2C(c3ccc(S(N)(=O)=O)cc3)C2[Si](C)(C)C)cn1 (stereo not drawn)
5.80
NS(=O)(=O)c1ccc([C@@H]2C[C@H]2c2ccnc(C3CCC3)c2)cc1 (racemic)
6.30

(P) NS(=O)(=O)c1ccc([C@@H]2C[C@H]2c2ccc(N3CCCC3)nc2)cc1 (relative stereo)
(Q) CC(C)c1ccnc(C2CC2c2ccc(S(N)(=O)=O)cc2)c1 (racemic) [Example A11]
(R) NS(=O)(=O)c1ccc(C2CC2c2nccc(-c3cccc(F)c3)n2)cc1 (single isomer, unassigned)
(S) CC(C)c1cc(C2CC2c2ccc(S(N)(=O)=O)cc2)ccn1 (single isomer, unassigned)
(T) CC(C)c1ccc(C2CC2c2ccc(S(N)(=O)=O)cc2)nn1 (racemic)
Order the items by recorded pEC50; the first position goes to the largest value. Submit the labels in the order that the ranking request calls for. R, Q, P, S, T

(a) CC(C)c1ccnc(C2CC2c2ccc(S(N)(=O)=O)cc2)n1 (single isomer, unassigned) [Example 5]
(b) NS(=O)(=O)c1ccc([C@@H]2C[C@H]2c2ccc(-n3cccn3)nc2)cc1 (racemic)
So which one has the bigger pEC50 here, a or b ? Use the label to indicate which entry you chose. a

(a) CC(C)c1cccc(C2CC2c2ccc(S(N)(=O)=O)cc2)n1 (single isomer, unassigned)
(b) NS(=O)(=O)c1ccc(C2CC2c2ccc(C3CCCC3)cn2)cc1 (single isomer, unassigned)
So which one has the bigger pEC50 here, a or b ? Use the label to indicate which entry you chose. a
